Tested on: T-47D breast
protocol_description: NCI-60 one-dose screen, 48 h
run_conditions: 10 µM unless noted
About 83,000 compounds went through this panel and 20% of them were active in at least one assay; those are over-represented in the sample as a whole. The source made the active and inactive calls. The calls were made as follows: active = growth percent below 10; inactive = the rest.
Bench note: report the call from active, inactive

IN: Recorded test outcome, item CCOC(=O)c1c(C)nc2ccccc2c1/C=C/c1ccccc1
OUT: inactive

IN: What did the test return for O=C(O)/C=C/C(=O)Nc1cccc(Cn2nnc3cc(Cl)c(Cl)cc32)c1 ?
OUT: inactive

Others:
IN: Query: recorded result category for Cn1cc(-c2nn3cc(-c4cccs4)nc3s2)c2cc(F)ccc21 in this test
OUT: inactive

IN: Can you look up the reported call for COc1cc(/C=C/C(=O)/C=C(O)/C=C/c2ccc(OC(=O)C34CC5CC(CC(C5)C3)C4)c(OC)c2)ccc1OC(=O)C12CC3CC(CC(C3)C1)C2 for me?
OUT: inactive

IN: Hey, what did the test say about NC(=O)c1c(NC(=O)c2cccs2)sc2c1CCC(=O)C2 ?
OUT: active

IN: Just curious, what result did N=c1c(S(=O)(=O)c2ccccc2)cc2c(=O)n3ccccc3nc2n1CC1CCCO1 (centres undefined) get here?
OUT: inactive

IN: Give the logged outcome of this assay for the following compound: Cc1ccc(S(=O)(=O)OCCCOS(=O)(=O)c2ccc(C)cc2)cc1
OUT: inactive

IN: Any idea what this test logged for CCN(CC)CCN1C(=O)c2c(c(C)c3c(oc4ccc(O)cc43)c2C)C1=O ?
OUT: active

IN: # lookup: test call for O=C(O)c1ccc(-c2ccc(/C=N/Nc3nc(Nc4ccccc4)nc(N4CCCCC4)n3)o2)cc1
OUT: inactive

###

Tested on: OVCAR-3 ovarian
protocol_description: NCI-60 one-dose screen, 48 h
run_conditions: 10 µM unless noted
Description: Growth inhibition of the OVCAR-3 human tumor cell line is measured as a screen for anti-cancer activity. Cells are grown in 96 well plates and exposed to the test compound for 48 hours. Compounds are tested at a single concentration, which is 10^-5 M for most compounds. The reported endpoint is percent growth (GI% or GIPRCNT), where numbers from 0 - 100% represent growth inhibition, and numbers from -100% - 0 represent cell death. For example, a value of 40 represents 60% growth inhibition. […]
About 83,000 compounds went through this panel and 20% of them were active in at least one assay; those are over-represented in the sample as a whole. The source made the active and inactive calls. The calls were made as follows: active = growth percent below 10; inactive = the rest.
Choose the fitting class; nothing outside active, inactive is accepted.

# example entries with known answers
IN: What outcome does the record of this test show for COc1cc2c(cc1OCCCCN1CCN(C(=S)SCCC(C#N)(c3ccccc3)c3ccccc3)CC1)N=C[C@@H]1CCCN1C2=O ?
OUT: active

IN: Dear all, I need the recorded test outcome for Cc1ccc(C2CC(c3nc(-c4ccc(Cl)cc4)oc3C)=NN2C(=O)c2ccncc2)cc1 (stereo not drawn) , thank you.
OUT: inactive

IN: Lab log entry: CN(C)CCCC1(c2ccc(F)cc2)OCc2cc(-c3cc4ccccc4s3)ccc21 (stereo not drawn) — outcome as called in the assay?
OUT: active

IN: What is the recorded call for this molecule in the test? O=C(CCCCCCN1CC(=O)N2[C@H](c3ccc(Cl)cc3)c3[nH]c4ccccc4c3C[C@@H]2C1=O)NO
OUT: inactive

IN: Short answer needed: outcome of this test for CC1(C)OB(O)c2cc(-c3nc4ccc5[nH]ncc5c4c4c3CCCC4)ccc21 ?
OUT: inactive

Then this molecule:
IN: Hi team, can someone confirm the assay call for COc1cccc(-c2cc(-c3cccc(Cl)c3)c(C#N)c(=O)[nH]2)c1 ?
OUT: inactive
